# test_details: DPPH radical scavenging assay
# experimental_context: concentration required for 50% reduction of DPPH radicals; 37 °C, 30 min, 517 nm; nc = SC50 cannot be calculated due to weak or no related activities
As shown below, each of these compounds has a reported SC50 value.

# compound, unit_string, SC50
data = [
    ("OCCc1cc(O)cc(O[C@@H]2O[C@H](CO)[C@@H](O)[C@H](O)[C@H]2O)c1", "µM", 255.2),
    ("COc1cc(C(O)C(CO)Oc2c(OC)cc(C3OCC4C(c5ccc(OC6OC(CO)C(O)C(O)C6O)c(OC)c5)OCC34)cc2OC)ccc1O (stereo not drawn) [Compound 9, samsesquinoside]", "µM", 47.3),
    ("COc1cc(C2OCC3C(c4ccc(OC5OC(CO)C(O)C(O)C5O)c(OC)c4)OCC23)ccc1O [Compound 10, pinoresinol-4-O-D-glucoside]", "µM", 30.5),
]

* * *

# System: NO production in LPS-activated RAW 264.7 cells
# test_details: Inhibition of NO production in LPS-activated RAW 264.7 cells (Griess reaction)
# Format: cell-based
# experimental_context: Mus musculus, RAW264.7; RAW 264.7, 1 μg/mL LPS, 24 h; mean ± SD (n = 3); read-out: IC50 (NO inhibitory activity)
pIC50: −log10 of the molar value.
As shown below, each of these compounds has a reported pIC50 value.
endpoint_label: pIC50

# compound, test_target, endpoint_result
rows = [
    ("COc1cc(C2Oc3c(OC)cc(CCCO)cc3C2CO)ccc1OC1OC(CO)C(O)C(O)C1O (stereo not drawn)", "NO production in LPS-activated RAW 264.7 cells", "< 3.70"),
    ("COc1cc(C(O)C(CO)Oc2c(OC)cc(C3OCC4C(c5ccc(OC6OC(CO)C(O)C(O)C6O)c(OC)c5)OCC34)cc2OC)ccc1O (stereo not drawn) [Compound 9, samsesquinoside]", "NO production in LPS-activated RAW 264.7 cells", "< 3.70"),
    ("COc1cc([C@@H]2OC[C@@H](Cc3ccc(O[C@@H]4O[C@H](CO)[C@@H](O)[C@H](O)[C@H]4O)c(OC)c3)[C@H]2CO)ccc1O [Compound 19, lariciresinol-4-O-β-D-glucoside]", "NO production in LPS-activated RAW 264.7 cells", "< 3.70"),
    ("COc1cc([C@@H](OC)[C@H](O)CO)ccc1O", "NO production in LPS-activated RAW 264.7 cells", "< 3.70"),
    ("CC/C=C\\CCO[C@@H]1O[C@H](CO)[C@@H](O)[C@H](O)[C@H]1O[C@@H]1O[C@H](CO)[C@@H](O)[C@H](O)[C@H]1O", "NO production in LPS-activated RAW 264.7 cells", "< 3.70"),
    ("COc1cc(C(O)C(CO)Oc2c(OC)cc(C(O)C(O)CO)cc2OC)ccc1O (stereo not drawn)", "NO production in LPS-activated RAW 264.7 cells", "< 3.70"),
]

* * *

As shown below, each of these molecules has a reported SC50 value.
# test_details: DPPH radical scavenging assay
# experimental_context: concentration required for 50% reduction of DPPH radicals; 37 °C, 30 min, 517 nm; nc = SC50 cannot be calculated due to weak or no related activities
endpoint_label: SC50

# molecule, endpoint_result
data = [
    ("O=C1O[C@H]([C@@H](O)CO)C(O)=C1O [Ascorbic acid, reference compound]", "15.6 ± 0.8 µM"),
    ("COc1cc([C@@H](OC)[C@H](O)CO)ccc1O [Compound 26, alatusol D]", "284.0 ± 16.5 µM"),
    ("COc1cc(C(O)C(CO)Oc2ccc(C(O)C(O)CO)cc2OC)ccc1O (stereo not drawn) [Compound 18]", "127.9 ± 15.4 µM"),
    ("CCOC(=O)/C=C/c1ccc(O)c(OC)c1 [Compound 21, 3-O-ethyl ferulate]", "50.8 ± 1.4 µM"),
    ("COc1cc(C2OCC3C(c4cc(OC)c(OC5OC(CO)C(O)C(O)C5O)c(OC)c4)OCC23)cc(OC)c1O [Compound 11, syringaresinol-4′-O-β-D-glucopyranoside]", "16.2 ± 1.6 µM"),
    ("COc1cc([C@@H]2OC[C@@H](Cc3ccc(O[C@@H]4O[C@H](CO)[C@@H](O)[C@H](O)[C@H]4O)c(OC)c3)[C@H]2CO)ccc1O [Compound 19, lariciresinol-4-O-β-D-glucoside]", "48.8 ± 2.9 µM"),
]

* * *

# test_details: Cytotoxicity in RAW 264.7 cells (CCK-8)
# experimental_context: mouse
pIC50: −log10 of the molar value.
endpoint_label: pIC50

# smiles_entry, endpoint_result
data = [
    ("O=C(O)/C=C/c1ccc(O)cc1", "< 3.70"),
    ("COc1cc([C@H](O)[C@@H](CO)Oc2c(OC)cc(/C=C/CO)cc2OC)ccc1O[C@@H]1O[C@H](CO)[C@@H](O)[C@H](O)[C@H]1O", "< 3.70"),
    ("COc1cc(/C=C/CO)cc(OC)c1O[C@@H]1O[C@H](CO)[C@@H](O)[C@H](O)[C@H]1O", "< 3.70"),
    ("COc1cc([C@H](O)[C@@H](CO)Oc2ccc(/C=C/CO)cc2OC)ccc1O[C@@H]1O[C@H](CO)[C@@H](O)[C@H](O)[C@H]1O", "< 3.70"),
]

* * *

# System: A549
# test_details: Cytotoxic assay (CCK-8), A549
# Format: cell-based, human
# experimental_context: Homo sapiens, A549, 48 h, mean ± SD (n = 3)

# compound, test_target, IC50
measured = [
    ("COc1cc(C2OCC3C(c4cc(OC)c(OC5OC(CO)C(O)C(O)C5O)c(OC)c4)OCC23)cc(OC)c1O [Compound 11, syringaresinol-4′-O-β-D-glucopyranoside]", "A549", "> 200 µM"),
    ("COc1cc([C@@H](OC)[C@H](O)CO)ccc1O", "A549", "> 200 µM"),
    ("OCC1OC(OC2C(OCCc3ccccc3)OC(CO)C(O)C2O)C(O)C(O)C1O (stereo not drawn) [Compound 8, phenethyl alcohol β-sophoroside]", "A549", "> 200 µM"),
    ("O=C(O)/C=C/c1ccc(O)cc1", "A549", "> 200 µM"),
    ("COc1cc(C(O)C(CO)Oc2c(OC)cc(C3OCC4C(c5ccc(OC6OC(CO)C(O)C(O)C6O)c(OC)c5)OCC34)cc2OC)ccc1O (stereo not shown) [Compound 9, samsesquinoside]", "A549", "> 200 µM"),
    ("CO[C@H]1C[C@H](OC2CC[C@]3(C)C4CC[C@]5(C)[C@@H](C6=CC(=O)OC6)CC[C@]5(O)C4CC[C@]3(O)C2)O[C@H](C)[C@H]1O[C@@H]1O[C@H](CO)[C@@H](O)[C@H](O)[C@H]1O (stereo partly shown)", "A549", "< 0.1 µM"),
    ("COc1cc([C@H](O)[C@@H](CO)Oc2ccc(/C=C/CO)cc2OC)ccc1O[C@@H]1O[C@H](CO)[C@@H](O)[C@H](O)[C@H]1O", "A549", "> 200 µM"),
    ("COc1cc(C(O)C(CO)Oc2c(OC)cc(C(O)C(O)CO)cc2OC)ccc1O (stereo not shown)", "A549", "> 200 µM"),
    ("COc1cc(C2OCC3C(c4ccc(OC5OC(CO)C(O)C(O)C5O)c(OC)c4)OCC23)ccc1O [Compound 10, pinoresinol-4-O-D-glucoside]", "A549", "> 200 µM"),
    ("COC/C=C/c1cc(OC)c2c(c1)[C@H](CO)[C@H](c1ccc(O[C@@H]3O[C@H](CO)[C@@H](O)[C@H](O)[C@H]3O)c(OC)c1)O2", "A549", "> 200 µM"),
    ("COc1cc(C2Oc3c(OC)cc(CCCO)cc3C2CO)ccc1OC1OC(CO)C(O)C(O)C1O (stereo not shown)", "A549", "> 200 µM"),
    ("CC/C=C\\CCO[C@@H]1O[C@H](CO)[C@@H](O)[C@H](O)[C@H]1O[C@@H]1O[C@H](CO)[C@@H](O)[C@H](O)[C@H]1O", "A549", "> 200 µM"),
    ("COc1cc(/C=C/CO)cc(OC)c1O[C@@H]1O[C@H](CO)[C@@H](O)[C@H](O)[C@H]1O", "A549", "> 200 µM"),
    ("COc1cc(/C=C/CO)ccc1O[C@@H]1O[C@H](CO)[C@@H](O)[C@H](O)[C@H]1O", "A549", "> 200 µM"),
    ("COc1cc([C@@H](O)[C@@H](CO)Oc2c(OC)cc(/C=C/CO)cc2OC)cc(OC)c1O[C@@H]1O[C@H](CO)[C@@H](O)[C@H](O)[C@H]1O [Compound 14, picraquassioside C]", "A549", "> 200 µM"),
    ("COc1cc(/C=C/C=O)cc(OC)c1O[C@@H]1O[C@H](CO)[C@@H](O)[C@H](O)[C@H]1O [Compound 29, sinapaldehyde glucoside]", "A549", "> 200 µM"),
    ("OCCc1cc(O)cc(O[C@@H]2O[C@H](CO)[C@@H](O)[C@H](O)[C@H]2O)c1", "A549", "> 200 µM"),
    ("OCCc1ccc(O)c(O[C@@H]2O[C@H](CO)[C@@H](O)[C@H](O)[C@H]2O[C@@H]2O[C@H](CO)[C@@H](O)[C@H](O)[C@H]2O)c1", "A549", "> 200 µM"),
    ("COc1cc([C@H](O)[C@@H](CO)Oc2c(OC)cc(/C=C/CO)cc2OC)ccc1O[C@@H]1O[C@H](CO)[C@@H](O)[C@H](O)[C@H]1O", "A549", "> 200 µM"),
    ("CCOC(=O)/C=C/c1ccc(O)c(OC)c1 [Compound 21, 3-O-ethyl ferulate]", "A549", "> 200 µM"),
    ("COc1cc(C(O)C(CO)Oc2ccc(C(O)C(O)CO)cc2OC)ccc1O (stereo not shown)", "A549", "> 200 µM"),
    ("COc1cc([C@@H]2OC[C@@H](Cc3ccc(O[C@@H]4O[C@H](CO)[C@@H](O)[C@H](O)[C@H]4O)c(OC)c3)[C@H]2CO)ccc1O [Compound 19, lariciresinol-4-O-β-D-glucoside]", "A549", "> 200 µM"),
]
